# System: PDC KRAS tumor spheroids with HUVEC/MSC, viability;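 note: spheroids exposed to compounds for seven days before readout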
# test-details: Anticancer human tumor 349418-098-R-PDC patient-derived lung adenocarcinoma cell line growth inhibition [KRAS2]
# test-settings: second compound 0.1 µM; first compound 1 µM; stronger effect = lower value
Output Satisfied for records whose viability, T/C is lower than 20%, Not satisfied for records at or above 20%.

Recorded results for 2 compounds are shown here.
# compound, category-label
records = [
    ("CCN1CCN(Cc2ccc(Nc3ncc(F)c(-c4cc(F)c5nc(C)n(C(C)C)c5c4)n3)nc2)CC1 + CC1OCC2(CCN(c3cnc(Sc4ccnc(N)c4Cl)c(N)n3)CC2)C1N", "Satisfied"),
    ("CC(C)NCC(C(=O)N1CCN(c2ncnc3c2C(C)CC3O)CC1)c1ccc(Cl)cc1 (stereo not given) + CNCc1ccccc1-c1csc(C(C)Nc2nc(C)nc3cc(OC)c(OC)cc23)c1", "Not satisfied"),
]

[in] is_below(viability, T/C, 20%) for Cn1nccc1Nc1nccc(-c2cc3c(s2)C(C)(C)N(CCN2CCOCC2)C3=O)n1 + CNCc1ccccc1-c1csc(C(C)Nc2nc(C)nc3cc(OC)c(OC)cc23)c1 ?
[out] Satisfied

[in] Answer whether the compound CC(C)NCC(C(=O)N1CCN(c2ncnc3c2C(C)CC3O)CC1)c1ccc(Cl)cc1 (stereo not given) + COc1cc2nc(C)nc(NC(C)c3cc(N)cc(C(F)(F)F)c3)c2cc1OC1CCOC1 has viability, T/C strictly less than 20%
[out] Not satisfied

[in] Below 20% on viability, T/C? Entry CC(=O)OC12COC1CC(O)C1(C)C(=O)C(O)C3=C(C)C(OC(=O)C(O)C(NC(=O)OC(C)(C)C)c4ccccc4)CC(O)(C(OC(=O)c4ccccc4)C21)C3(C)C (stereo not given) + CNCc1ccccc1-c1csc(C(C)Nc2nc(C)nc3cc(OC)c(OC)cc23)c1
[out] Not satisfied
